Data provenance: ChEMBL document CHEMBL1201862

- Tested on: SN12C
- MEASUREMENT_PROTOCOL: NCI tumour cell line growth inhibition, 48 h
Activity calls are given as the source filed them. No stated cut-off is given here; in the data, active = GI50 up to about 1.1 µM and inactive = higher.
Please state which outcome applies, choosing from t (active), f (inactive)

[[record]]
compound = "C=CC1(C)CC(=O)C2(O)C(C)(O1)C(OC(C)=O)C(O)C1C(C)(C)CCC(O)C12C (configuration not stated)"
target_desc = "SN12C"
qualitative_label = "f"

[[record]]
compound = "O=C1OC(c2ccccc2)=N/C1=C\\c1c(O)cc(O)cc1O"
target_desc = "SN12C"
qualitative_label = "f"

[[record]]
compound = "CCC1=[N+]([O-])C(C)(C)NC1(C)C"
target_desc = "SN12C"
qualitative_label = "f"


Outcome logged for CC1=NN(c2nc(N)nc(CBr)n2)C(C)(C)C1 in this assay:
f

Lab log entry: c1nc(OCC2CCCCC2)c2nc[nH]c2n1 — outcome as called in the assay?
f

Please let me know the test result on file for Nc1cccc(/C=C/CN2CCN(CCOC(c3ccccc3)c3ccccc3)CC2)c1 .
f

Just curious, what result did CCCCCCC(=O)CC(=O)C(=O)Nc1ccccc1C get here?
f

What did the test return for COc1cc(/C=C/c2ccc(S(N)(=O)=O)cc2)cc(OC)c1 ?
f

Just curious, what result did C/C(=N/NC(=S)N1CCCCCC1)c1cccc(/C(C)=N\NC(=S)N2CCCCCC2)n1 get here?
f

What outcome does the record of this test show for Cc1nc(=O)[nH]c2s/c(=N/C3CCCCC3)n(C3CCCCC3)c(=O)c12 ?
f

Just curious, what result did Cc1cn(C2CC(ON3C(=O)c4ccccc4C3=O)C(CO)O2)c(=O)[nH]c1=O (configuration not stated) get here?
f

Call for entry O=[N+]([O-])c1ccc2nc(/C(=N\Nc3ccccc3)C(O)c3ccc4c(c3)OCO4)c(O)nc2c1 (configuration not stated) :
f

Status in this test for Cc1ccccc1-c1c(N)nc(N)nc1C(=O)Nc1nccs1 ?
f

Test call, this compound: C=C[C@@]1(C)CC2CC[C@]3(C)C(C)=CC(=O)CC3[C@]2(C)CC1O (some centres not stated)
f

Given Cc1ccc2c(c1)CC1(Cc3cccc(C)c3C1=O)C2=O (configuration not stated) , state the outcome it received in this test.
f

Check the results log: what was the call for O/N=C1/C(=C/c2ccc(Cl)cc2)CCCC1C(NO)c1ccc(Cl)cc1 (configuration not stated) ?
f

What was the test verdict on CC1(C)OC(=O)C(C#N)=C1C[n+]1ccccc1 ?
f

Check the results log: what was the call for O=C(/C=C1\Nc2ccccc2C(=O)N1c1ccc(Cl)cc1)c1ccncc1 ?
f

Test call, this compound: CCCCC1=C(C(=O)N2CCOCC2)C2(OCCO2)C1Cl (configuration not stated)
f

Answer briefly: the call reported for Cc1cn(S(=O)(=O)c2ccccc2)c2c(OCc3ccccc3)cc(NS(C)(=O)=O)cc12 in this assay.
f

What did this assay record as the result for Nc1ncnc2c(C3OC(CO)C(O)C3O)scc12 (configuration not stated) ?
t

What classification did COc1ccc(C(=O)CC(=O)C(=O)Nc2ccc(C)c(C)c2)cc1 end up with in this test?
f

---

This section presents compounds with their documented GI50 values.
- Tested on: SN12C
- MEASUREMENT_PROTOCOL: NCI tumour cell line growth inhibition, 48 h
Activity calls are given as the source filed them. Rule as the data show it: active = GI50 up to about 1.1 µM and inactive = higher.

[[record]]
compound = "COC(=O)C(C)(/N=C/c1ccccc1)c1ccccc1 (stereo unspecified)"
recorded_result = "> 100 µM (inactive)"


Item CC(C)(Oc1ccc(/C=C/C(=O)c2ccccc2)cc1)C(=O)Nc1c(Cl)cccc1Cl was tested on SN12C; the reported GI50 is > 10 µM (inactive)

Field GI50 (system: SN12C) for entry Cc1cc(C)n(CN(Cn2nc(C)cc2C)c2ccc(N(Cn3nc(C)cc3C)Cn3nc(C)cc3C)cc2)n1 = 27.4 µM (inactive)

Lab note: compound CSc1nnc(SC)nn1 tested on SN12C; recorded GI50 was 21.1 µM (inactive)

---

- Test system: HCC 2998
- MEASUREMENT_PROTOCOL: NCI tumour cell line growth inhibition, 48 h
Activity calls are given as the source filed them. Cut-off read from the data, not from the text of the source: active = GI50 up to about 1.1 µM and inactive = higher.
MEASURED_METRIC: GI50

[[record]]
compound = "CC(C)(CO)CNc1nc(N)nc(Cl)c1C=O"
recorded_result = "4.51 µM (inactive)"

[[record]]
compound = "O=C1C=C2SC3C[C@@]24CC1[N+]1=c2c4c(c(O)c4c2=C(C=N4)CC1)N3"
recorded_result = "2.74 µM (inactive)"

[[record]]
compound = "CC(=O)C1C(=O)C(=O)N(c2cccc([N+](=O)[O-])c2)C1=O (stereo unspecified)"
recorded_result = "> 100 µM (inactive)"

[[record]]
compound = "Cc1ccc2c(c1)CC1(Cc3cccc(C)c3C1=O)C2=O (stereo unspecified)"
recorded_result = "> 100 µM (inactive)"

[[record]]
compound = "CCCCCCCCCCCCCC(=O)NO"
recorded_result = "14.4 µM (inactive)"


response.value for CCN(CC)C(=S)SS(=O)(=O)c1ccc(C)cc1 (field: GI50) = 36.9 µM (inactive)

// GI50 lookup, compound = c1ccc2c(c1)ncn2C1CCCCO1 (stereo unspecified) , result: > 100 µM (inactive)

---

Below: a set of entries, each annotated with reported GI50.
- Test system: M14
- MEASUREMENT_PROTOCOL: NCI tumour cell line growth inhibition, 48 h
The source made the active and inactive calls. No stated cut-off is given here; in the data, active = GI50 up to about 1.1 µM and inactive = higher. Starred links: 1 amine or outer side, 2 acyl side, 3 side chain; linkers in the order of their positions; H or OH if unused. Positions of bridges follow the written chain, without caps; N, C: chain ends. Non-standard residues stand in square brackets, D forms with d. Residues, ends and D or L forms follow the SMILES beside them. Chains are numbered I, II in the order given. Actinocin(1to9) = Cc1c2oc3c(C)ccc(C(=O)[*:2])c3nc-2c(C(=O)[*:1])c(N)c1=O; aThr = C[C@H](O)[C@H](N)C(=O)O; NMeV = CN[C@H](C(=O)O)C(C)C; Sar = CNCC(=O)O

Examples with answers:
[[record]]
molecule = "CC1(C)C2CCC1(C)C(N/C(=C(/C(Cl)=C(Cl)Cl)[N+](=O)[O-])n1nnc3ccccc31)C2 (stereo unspecified)"
target_desc = "M14"
measured_metric = "GI50"
recorded_result = "37.7 µM (inactive)"

[[record]]
molecule = "Cc1c2oc3c(C)ccc(C(=O)N[C@@H]4C(=O)N[C@H](C(C)C)C(=O)N5CCC[C@H]5C(=O)N(C)CC(=O)N(C)[C@@H](C(C)C)C(=O)O[C@H]4C)c3nc-2c(C(=O)N[C@@H]2C(=O)N[C@H](C(C)C)C(=O)N3CCC[C@H]3C(=O)N(C)CC(=O)N(C)[C@@H](C(C)C)C(=O)O[C@H]2C)c(N)c1=O (I: [aThr][dV]P[Sar][NMeV] / II: [aThr][dV]P[Sar][NMeV]; ester I:1-I:C, II:1-II:C; linker I:N-II:N via Actinocin(1to9))"
target_desc = "M14"
measured_metric = "GI50"
recorded_result = "0.00528 µM (active)"


Reported GI50 for COC(=O)/C=C\C(C#N)(C#N)/N=C/c1ccc(C)s1 was 1.85 µM (inactive)

For record C=CCOc1ccc(C2(c3ccc(OCC=C)cc3)C(=O)Nc3ccccc32)cc1 the listed GI50 is > 10 µM (inactive)

Note to self: GI50 recorded for COc1ccc(Cn2c(=O)c(OC)c(C)c3cc4ccccc4cc32)cc1 was 41.2 µM (inactive)

Short answer for Cc1ccc(S(=O)(=O)Nn2c(C)cc3ccc(S(=O)(=O)Nc4ccccc4[N+](=O)[O-])cc3c2=O)cc1 : GI50 was 13.6 µM (inactive)

---

- System: NCI-H460
- MEASUREMENT_PROTOCOL: NCI tumour cell line growth inhibition, 48 h
Activity calls are given as the source filed them. No stated cut-off is given here; in the data, active = GI50 up to about 1.1 µM and inactive = higher.
MEASURED_METRIC: GI50

# count of solved cases: 3
[[record]]
compound = "CSC1=C(C#N)C(=O)N(c2ccc(C)cc2)C(=O)C1C#N (configuration not stated)"
target_desc = "NCI-H460"
measured_metric = "GI50"
recorded_result = "> 100 µM (inactive)"

[[record]]
compound = "[N-]=[N+]=Nc1c(-c2ccccc2)c(=O)n(-c2ccccc2)c2ccccc12"
target_desc = "NCI-H460"
measured_metric = "GI50"
recorded_result = "46.5 µM (inactive)"

[[record]]
compound = "CC(=O)Nc1ncc2c(n1)-c1ccccc1OC2c1ccccc1 (configuration not stated)"
target_desc = "NCI-H460"
measured_metric = "GI50"
recorded_result = "> 100 µM (inactive)"


Given item CC(C#N)(NO)C(C)(C#N)NO (configuration not stated) , the value recorded as its GI50 is > 100 µM (inactive)

Just so you know, measured GI50 for CC(=O)OCC1OC(N2C(=O)CC(N)=Nc3ccccc32)C(OC(C)=O)C(OC(C)=O)C1OC(C)=O (configuration not stated) came out at 55.5 µM (inactive)

// GI50 value for CC1(C)OC2[C@@H](CO[C@@]3([C@H]4OC(C)(C)O[C@@H]4CO)OC(C)(C)O[C@@H]23)O1 (some centres not stated) : > 100 µM (inactive)

The reported GI50 of the compound CCOc1ccccc1/C=C1\NC(=O)N(/C=C2\C(=O)Oc3ccccc3C2=O)C1=O was 39.4 µM (inactive)

Entry Cn1cnc([N+](=O)[O-])c1Sc1nc2ccccc2s1 ; GI50 = 12 µM (inactive)

The compound CCOC(=O)c1cc(C2=CCNC2=O)c(-c2cc(C)no2)[nH]1 showed GI50 equal to 63.4 µM (inactive)
